assay: Blood sampling for THC and CBD plasma concentration after single oral dosing; conditions: dog, plasma, oral, THC level in blood plasma fraction, mean of dogs 5-8; 0.12 mg/kg THC + 0.24 mg/kg CBD oral once; 6 h
Recorded Metric: concentration at 6 h (ng/mL)

CCCCCc1cc(O)c2c(c1)OC(C)(C)[C@@H]1CCC(C)=C[C@@H]21 [THC, Δ^9-Tetrahydrocannabinol] = 3

* * *

assay: Blood sampling for THC and CBD plasma concentration after single oral dosing; settings: dog, plasma, oral, THC level in blood plasma fraction, mean of dogs 1-4; 0.24 mg/kg THC + 0.12 mg/kg CBD oral once; 0.67 h
Recorded Metric: concentration at 0.67 h (ng/mL)

CCCCCc1cc(O)c2c(c1)OC(C)(C)[C@@H]1CCC(C)=C[C@@H]21 [THC, Δ^9-Tetrahydrocannabinol] = 39

* * *

assay: Blood sampling for THC and CBD plasma concentration after single oral dosing; conditions: dog, plasma, oral, CBD concentration in blood plasma, individual dogs 5-8; 0.24 mg/kg CBD + 0.12 mg/kg THC oral once; 0 h
Recorded Metric: concentration at 0 h

C=C(C)[C@@H]1CCC(C)=C[C@H]1c1c(O)cc(CCCCC)cc1O [CBD, Cannabidiol] = 0 ng/mL

* * *

assay: Blood sampling for THC and CBD plasma concentration after single oral dosing; conditions: dog, plasma, oral, THC level in blood plasma fraction, individual dogs 5-8; 0.12 mg/kg THC + 0.24 mg/kg CBD oral once; 4 h
Recorded Metric: concentration at 4 h

CCCCCc1cc(O)c2c(c1)OC(C)(C)[C@@H]1CCC(C)=C[C@@H]21 [THC, Δ^9-Tetrahydrocannabinol] = 4.19 ng/mL

* * *

experiment: Blood sampling for THC and CBD plasma concentration after single oral dosing; settings: dog, plasma, oral, CBD concentration in blood plasma, individual dogs 1-4; 0.12 mg/kg CBD + 0.24 mg/kg THC oral once; 2 h
Recorded Metric: concentration at 2 h

C=C(C)[C@@H]1CCC(C)=C[C@H]1c1c(O)cc(CCCCC)cc1O = 6.27 ng/mL

* * *

assay: Blood sampling for THC and CBD plasma concentration after single oral dosing; conditions: dog, plasma, oral, CBD concentration in blood plasma, individual dogs 5-8; 0.24 mg/kg CBD + 0.12 mg/kg THC oral once; 4 h
Recorded Metric: concentration at 4 h (ng/mL)

C=C(C)[C@@H]1CCC(C)=C[C@H]1c1c(O)cc(CCCCC)cc1O = 5.28

* * *

experiment: Blood sampling for THC and CBD plasma concentration after single oral dosing; conditions: dog, plasma, oral, THC level in blood plasma fraction, mean of dogs 5-8; 0.12 mg/kg THC + 0.24 mg/kg CBD oral once; 0 h
Recorded Metric: concentration at 0 h (ng/mL)

CCCCCc1cc(O)c2c(c1)OC(C)(C)[C@@H]1CCC(C)=C[C@@H]21 [THC, Δ^9-Tetrahydrocannabinol] = 0

* * *

assay: Blood sampling for THC and CBD plasma concentration after single oral dosing; settings: dog, plasma, oral, THC level in blood plasma fraction, individual dogs 1-4; 0.24 mg/kg THC + 0.12 mg/kg CBD oral once; 2 h
Recorded Metric: concentration at 2 h (ng/mL)

CCCCCc1cc(O)c2c(c1)OC(C)(C)[C@@H]1CCC(C)=C[C@@H]21 [THC, Δ^9-Tetrahydrocannabinol] = 25.6

* * *

assay: Blood sampling for THC and CBD plasma concentration after single oral dosing; details: dog, plasma, po, 0.24 mg/kg, AUC for THC concentration, canine, 0.24 mg/kg THC in combination with 0.12 mg/kg CBD
Recorded Metric: AUC

CCCCCc1cc(O)c2c(c1)OC(C)(C)[C@@H]1CCC(C)=C[C@@H]21 [THC, Δ^9-Tetrahydrocannabinol] = 145 to 170 ng·h/mL

Hey, just so you know, these numbers are from patent US12083094B2.
